# system: T1, Recombinant human TNFR1-Fc (human, UniProt P19438 30-211, limits assumed)
# T1 construct: bought reagent; also called hTNFR1:Fc; not shown: Fc part; not described
# T1 sequence (looked up): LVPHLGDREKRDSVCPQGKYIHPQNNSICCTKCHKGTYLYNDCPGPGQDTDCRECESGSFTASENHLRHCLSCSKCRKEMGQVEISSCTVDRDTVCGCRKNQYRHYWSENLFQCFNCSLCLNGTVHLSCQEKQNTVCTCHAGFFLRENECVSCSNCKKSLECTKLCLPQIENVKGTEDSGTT
# assay: ELISA: dAb on coated recombinant human TNFR1-Fc, anti-Vh detection
Known EC50 of a selection of binders
attribute_measured: EC50 (nM)

>>> result_value("DOM1H-131-206 G44E, L108Q (other, name in Kabat numbering, VH dAb variant) VH: EVQLLESGGGLVQPGGSLRLSCAASGFTFAHETMVWVRQAPGKELEWVSHIPPDGQDPFYADSVKGRFTISRDNSKNTLYLQMNSLRAEDTAVYHCALLPKRGPWFDYWGQGTQVTVSS")
1.64
>>> result_value("DOM1H-131-206 R83A (other, name in Kabat numbering, VH dAb variant) VH: EVQLLESGGGLVQPGGSLRLSCAASGFTFAHETMVWVRQAPGKGLEWVSHIPPDGQDPFYADSVKGRFTISRDNSKNTLYLQMNSLAAEDTAVYHCALLPKRGPWFDYWGQGTLVTVSS")
0.76
>>> result_value("DOM1H-131-206 H91S (other, name in Kabat numbering, VH dAb variant) VH: EVQLLESGGGLVQPGGSLRLSCAASGFTFAHETMVWVRQAPGKGLEWVSHIPPDGQDPFYADSVKGRFTISRDNSKNTLYLQMNSLRAEDTAVYSCALLPKRGPWFDYWGQGTLVTVSS")
0.96
>>> result_value("DOM1H-131-206 P41A (other, name in Kabat numbering, VH dAb variant) VH: EVQLLESGGGLVQPGGSLRLSCAASGFTFAHETMVWVRQAAGKGLEWVSHIPPDGQDPFYADSVKGRFTISRDNSKNTLYLQMNSLRAEDTAVYHCALLPKRGPWFDYWGQGTLVTVSS")
0.59
>>> result_value("DOM1H-131-206 P14A, H91S (other, name in Kabat numbering, VH dAb variant) VH: EVQLLESGGGLVQAGGSLRLSCAASGFTFAHETMVWVRQAPGKGLEWVSHIPPDGQDPFYADSVKGRFTISRDNSKNTLYLQMNSLRAEDTAVYSCALLPKRGPWFDYWGQGTLVTVSS")
0.75
>>> result_value("DOM1H-131-206 P14A, G44E (other, name in Kabat numbering, VH dAb variant) VH: EVQLLESGGGLVQAGGSLRLSCAASGFTFAHETMVWVRQAPGKELEWVSHIPPDGQDPFYADSVKGRFTISRDNSKNTLYLQMNSLRAEDTAVYHCALLPKRGPWFDYWGQGTLVTVSS")
2.03
>>> result_value("DOM1H-131-206 K43A (other, name in Kabat numbering, VH dAb variant) VH: EVQLLESGGGLVQPGGSLRLSCAASGFTFAHETMVWVRQAPGAGLEWVSHIPPDGQDPFYADSVKGRFTISRDNSKNTLYLQMNSLRAEDTAVYHCALLPKRGPWFDYWGQGTLVTVSS")
0.67
>>> result_value("DOM1H-131-206 G44E (other, name in Kabat numbering, VH dAb variant) VH: EVQLLESGGGLVQPGGSLRLSCAASGFTFAHETMVWVRQAPGKELEWVSHIPPDGQDPFYADSVKGRFTISRDNSKNTLYLQMNSLRAEDTAVYHCALLPKRGPWFDYWGQGTLVTVSS")
0.86
>>> result_value("DOM1H-131-206 G44E, H91S (other, name in Kabat numbering, VH dAb variant) VH: EVQLLESGGGLVQPGGSLRLSCAASGFTFAHETMVWVRQAPGKELEWVSHIPPDGQDPFYADSVKGRFTISRDNSKNTLYLQMNSLRAEDTAVYSCALLPKRGPWFDYWGQGTLVTVSS")
3.5
